- Assayed System: CXCR4 V112L (human, UniProt P61073-1 1-352, V112L)
- Sequence (P61073 whole entry V112L): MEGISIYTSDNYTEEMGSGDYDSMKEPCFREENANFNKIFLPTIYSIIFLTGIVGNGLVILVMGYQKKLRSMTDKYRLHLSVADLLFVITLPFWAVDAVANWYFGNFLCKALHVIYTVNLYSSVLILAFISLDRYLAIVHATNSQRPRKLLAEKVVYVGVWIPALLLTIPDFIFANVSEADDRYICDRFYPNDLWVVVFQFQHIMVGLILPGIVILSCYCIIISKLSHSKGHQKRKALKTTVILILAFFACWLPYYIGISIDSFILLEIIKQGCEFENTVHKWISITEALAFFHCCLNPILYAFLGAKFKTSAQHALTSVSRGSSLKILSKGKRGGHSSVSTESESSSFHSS
- Assay Notes: FACS
Metric: IC50 (nM)

> print(dat)
                                     binder  metric  unit.info  endpoint.result
1  IVRWSKKVPCVS (also called EPI-X4 WSC02; source: synthetic peptide (Fmoc solid-phase synthesis, HPLC-purified)) [WSC02]    IC50         nM              420
2  ILRWSRKLPCVS (source: synthetic peptide (Fmoc solid-phase synthesis, HPLC-purified)) [EPI-X4 JM#21]    IC50         nM              410
